Measured values drawn from patent US20190248902A1 for this set.

assay.target: T1, human ASGR-1 mutant construct H203 (human, UniProt P07306 1-291)
T1 construct: Arg/Glu scanning: non-arginine residues were changed to arginine; Transiently expressed on CHO-S cells
T1 sequence: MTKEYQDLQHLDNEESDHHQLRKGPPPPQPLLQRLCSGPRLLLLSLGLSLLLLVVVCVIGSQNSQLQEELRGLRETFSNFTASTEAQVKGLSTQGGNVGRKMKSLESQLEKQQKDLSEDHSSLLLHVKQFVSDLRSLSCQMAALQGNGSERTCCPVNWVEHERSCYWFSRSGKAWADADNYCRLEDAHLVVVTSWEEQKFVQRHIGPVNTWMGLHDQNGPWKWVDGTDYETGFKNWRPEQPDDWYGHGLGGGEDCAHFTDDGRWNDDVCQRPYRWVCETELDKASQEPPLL
test.name: FACS ratio: H203 normalized value / wt normalized value
Record form. Attribute: Normalization to wt ASGR1 Binding. Fill in for each entry.
Respond numerically, and do not add a unit to the figure.

(Q) Request the reported Normalization to wt ASGR1 Binding associated with 191G10 (antibody, V domains shown, mAb) VH: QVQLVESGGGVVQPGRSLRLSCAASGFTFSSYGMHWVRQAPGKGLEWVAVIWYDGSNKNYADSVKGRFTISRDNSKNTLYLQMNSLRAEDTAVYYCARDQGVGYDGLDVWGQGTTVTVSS VL: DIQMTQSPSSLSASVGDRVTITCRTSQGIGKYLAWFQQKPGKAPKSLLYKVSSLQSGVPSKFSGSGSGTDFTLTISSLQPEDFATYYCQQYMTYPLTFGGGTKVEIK
(A) 0.912

(Q) Request the reported Normalization to wt ASGR1 Binding associated with 176H4 (antibody, V domains shown, mAb) VH: QVQLVESGGGVVQPGRSLRLSCAASGFTFSSYGMHWVRQAPGKGLEWVAIIWYDGSYKYYADSVKGRFTISRDNSKNTLYLQMSSLRAEDTAVYYCARDAHDFWSGYFAYWGQGALVTVSS VL: DIVMTQTPLSLSVTPGQPASISCKSSQSLLHGDGKTYLYWYLQKPGQPPQLLIYEVSNRFSGVPDRFSGSGSGTDFTLKISRVEAEDVGIYYCMQSIQIPWTFGQGTRVEIK
(A) 1.5

(Q) Request the reported Normalization to wt ASGR1 Binding associated with 213B3 (antibody, V domains shown, mAb) VH: QVQLVESGGGVVQPGRSLRLSCAASGFTFSSYGMHWVRQAPGKGLEWVAVIWYDGSNKNYADSVKGRFTISRDNSKNTLYLQMNSLRAEDTAVYYCARDRTVGYDGFDIWGQGTMVTVSS VL: DIQMTQSPSSLSASVGDRVTITCRASQGIGKYLAWFQQKPGKAPKSLISAASSVLSGVPSKFSGSGSGTDFTLTISSLQPEDFATYYCQKYDTYPFTFGPGTKVDIK
(A) 0.539

(Q) Request the reported Normalization to wt ASGR1 Binding associated with 202A3 (antibody, V domains shown, mAb) VH: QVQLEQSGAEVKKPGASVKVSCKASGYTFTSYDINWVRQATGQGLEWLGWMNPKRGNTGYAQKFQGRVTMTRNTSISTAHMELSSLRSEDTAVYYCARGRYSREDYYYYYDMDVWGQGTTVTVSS VL: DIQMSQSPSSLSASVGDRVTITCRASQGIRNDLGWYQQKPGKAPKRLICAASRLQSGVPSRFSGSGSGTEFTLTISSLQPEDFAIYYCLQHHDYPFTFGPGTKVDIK
(A) 0.913

(Q) Request the reported Normalization to wt ASGR1 Binding associated with 191G1 (antibody, V domains shown, mAb) VH: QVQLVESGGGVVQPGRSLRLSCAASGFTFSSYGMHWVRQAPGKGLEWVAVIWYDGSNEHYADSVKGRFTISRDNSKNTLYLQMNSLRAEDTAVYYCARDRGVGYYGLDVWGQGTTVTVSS VL: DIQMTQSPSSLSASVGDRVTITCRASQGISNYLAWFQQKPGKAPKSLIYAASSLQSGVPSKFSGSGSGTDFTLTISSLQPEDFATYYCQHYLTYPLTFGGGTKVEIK
(A) 1.07

(Q) Request the reported Normalization to wt ASGR1 Binding associated with 6G7 (antibody, V domains shown, mAb) VH: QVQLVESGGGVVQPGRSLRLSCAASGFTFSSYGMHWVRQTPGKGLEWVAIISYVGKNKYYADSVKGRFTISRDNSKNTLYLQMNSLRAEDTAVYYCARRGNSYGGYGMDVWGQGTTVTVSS VL: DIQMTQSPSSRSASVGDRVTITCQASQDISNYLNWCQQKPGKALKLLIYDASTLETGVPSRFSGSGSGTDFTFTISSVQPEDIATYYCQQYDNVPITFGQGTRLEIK
(A) 1.18

(Q) Request the reported Normalization to wt ASGR1 Binding associated with 53F7 (antibody, V domains shown, mAb) VH: QVQLVQSGAEVKKPGASVKVSCKASGYTFTGYHMHWVRQAPGQGLEWMGWINPNNNGTNYAQKFQGRVTMTRDTSISTAYMELNRLTSDDTAVYYCARDGTSSFDYWGQGTLVTVSS VL: DIQMSQSPSSVSASVGDRVTITCRASQGISRWLAWYQQKPGKAPNLLIYAASSLQSGVPSRFSGSGSGTDFTLTISSLQPEDFAIYYCQQANSFPFTFGPGTKVDIK
(A) 1.1

(Q) Request the reported Normalization to wt ASGR1 Binding associated with 32D6 (antibody, V domains shown, mAb) VH: QVQLVESGGGVVQPGRSLRLSCAASGFTFSSYGMHWVRQAPGKGLEWVTVIWHDGSNAYYADSVKGRFTISRDNSKNTLYLQMNSLRAEDTAVYYCARENSSSYYFDYWGQGTLVTVSS VL: DIQMTQSPSSLSTSVGDRVTITCRASQNIISYLNWYQQKPGKAPKLLMYVASRLQSGVPSRFSGSGSGTDFTLTISSLQAEDFATYYCQQSYSTPYTFGGGTKVAIK
(A) 1.23

(Q) Request the reported Normalization to wt ASGR1 Binding associated with 45B4 (antibody, V domains shown, mAb) VH: QVQLVESGGGVVQPGRSLRLSCAASGFTFSDCVMHWVRQAPGKGLEWVAVIWYDGSNKYYADSVKGRFTISRDNSKNTLYLQMNSLRAEDTAVYYCARERYSSGLYDYGMDVWGQGTTVTVSS VL: DIQMTQSPSSLSASVGDRVTFTCRASQGIRDDLGWYQQKPGKAPKRLIYAASSLQSGVPSRFSGSGSGTEFTLTISSLQPEDFATYYCLQHYSYPRTFGQGTKVEIK
(A) 0.995

(Q) Request the reported Normalization to wt ASGR1 Binding associated with 173C11 (antibody, V domains shown, mAb) VH: QVQLVESGGGVVQPGRSLRLSCAASGFTFSSYGIHWVRQAPGKGLEWVALIFYDGSNKYYADSVKGRFTISRDNSKNTLYLHMSSLRAEDTAVYYCARRYSSSWSGGMDVWGQGTTVTVSS VL: DIVMTQTPLSLSVTPGQPASISCKSSQSLLHSEGKTYLYWYLQKPGQPPQLLIYEVSHRFSGVPDRFSGSGSGTDFTLKISRVEAEDVGVYYCMQSIQLLTFGGGTKVEIK
(A) 0.945
